# System: WS1
# protocol summary: Coupled enzyme assay, WS substrate profile (TLC)
# Type: biochemical, Marinobacter hydrocarbonoclasticus DSM 8798
# Design: key: no activity (−); ranging from no activity (−) to most active (+++); ranging from no activity (−) to most active (+++); most active (+++)
# test conditions: fatty alcohol C16; 12 h at 37° C.; each substrate 250 μM
observed property: WE formation (spot intensity of wax ester products on TLC), WS1, C16

Example cases with answers are listed next.
**Query** State WE formation (spot intensity of wax ester products on TLC), WS1, C16 (WS1) of CCCCCCCCCCCCCC(=O)O [C14] .
**Result** +

**Query** Recall the reported WE formation (spot intensity of wax ester products on TLC), WS1, C16 of CCCCCC/C=C\CCCCCCCC(=O)O [C16Δcis9] when tested on WS1.
**Result** ++

**Query** Provide WE formation (spot intensity of wax ester products on TLC), WS1, C16, tested on WS1, for CCCCCCCCCC(=O)O [C10] .
**Result** +

**Query** Look up and report measured WE formation (spot intensity of wax ester products on TLC), WS1, C16 (WS1) for the following compound: CCCCCCCCCCCC(=O)O [C12]
**Result** +

**Query** Give measured WE formation (spot intensity of wax ester products on TLC), WS1, C16 for CC/C=C\C/C=C\C/C=C\CCCCCCCC(=O)O [C18Δcis9, 12, 15] (WS1).
**Result** −

Further cases:
**Query** Give WE formation (spot intensity of wax ester products on TLC), WS1, C16 only, for CCCCCCCCCCCCCCCCCCCC(=O)O [C20] , using WS1 data.
**Result** +

---

# Tested on: WS1
# protocol summary: Coupled enzyme assay, WS substrate profile (TLC)
# Type: biochemical, Marinobacter hydrocarbonoclasticus DSM 8798
# Parameters: key: no activity (−); ranging from no activity (−) to most active (+++); ranging from no activity (−) to most active (+++); most active (+++)
# test conditions: fatty alcohol C12; 12 h at 37° C.; each substrate 250 μM
observed property: WE formation (spot intensity of wax ester products on TLC), WS1, C12

The following molecules have reported results that may help.
**Query** GET WE formation (spot intensity of wax ester products on TLC), WS1, C12 | system: WS1 | item: CCCCCCCCCCCCCCCCCC(=O)O [C18]
**Result** +

**Query** State, for WS1, measured WE formation (spot intensity of wax ester products on TLC), WS1, C12 of the molecule listed here: CCCCCCCCCCCC(=O)O [C12]
**Result** +

**Query** Retrieve WE formation (spot intensity of wax ester products on TLC), WS1, C12 on WS1; query CCCCCCCCCC(=O)O [C10]
**Result** +

**Query** Specify the recorded WE formation (spot intensity of wax ester products on TLC), WS1, C12 for CCCCCCCCCCCCCCCCCCCC(=O)O [C20] , system: WS1.
**Result** +

***
**Query** Report the value of WE formation (spot intensity of wax ester products on TLC), WS1, C12 obtained on WS1 for CC/C=C\C/C=C\C/C=C\CCCCCCCC(=O)O [C18Δcis9, 12, 15] .
**Result** +

**Query** Print WS1 WE formation (spot intensity of wax ester products on TLC), WS1, C12 for CCCCCC/C=C\CCCCCCCC(=O)O [C16Δcis9] .
**Result** ++

**Query** Report the value of WE formation (spot intensity of wax ester products on TLC), WS1, C12 obtained on WS1 for CCCCCCCCCCCCCC(=O)O [C14] .
**Result** −

**Query** Quote WE formation (spot intensity of wax ester products on TLC), WS1, C12 with test system WS1 for CCCCCCCCCCCCCCCC(=O)O [C16, palmitic acid]
**Result** ++

**Query** Report measured WE formation (spot intensity of wax ester products on TLC), WS1, C12 on WS1; entry: CC(C)CCCC(C)CCCC(C)CCCC(C)CC(=O)O (stereo not drawn) [Phytanic acid]
**Result** −

---

# test system: UniProt A3RE51
# protocol summary: Coupled enzyme assay, WS substrate profile (TLC)
# Format: biochemical, Marinobacter hydrocarbonoclasticus DSM 8798
# Parameters: key: no activity (−); ranging from no activity (−) to most active (+++); ranging from no activity (−) to most active (+++); most active (+++)
# test conditions: fatty alcohol C14; 12 h at 37° C.; each substrate 250 μM
observed property: WE formation (spot intensity of wax ester products on TLC), WS2, C14

**Query** Please look at this compound and report its WE formation (spot intensity of wax ester products on TLC), WS2, C14: "CCCCCCCCCCCCCCCCCCCC(=O)O"
**Result** +

**Query** Answer with the recorded WE formation (spot intensity of wax ester products on TLC), WS2, C14 for the compound listed here: "CCCCCCCCCC(=O)O"
**Result** −

**Query** Using the record for "CCCCCCCCCCCC(=O)O" , state its measured WE formation (spot intensity of wax ester products on TLC), WS2, C14.
**Result** +

---

# test system: WS2 (Marinobacter nauticus)
# protocol summary: Coupled enzyme assay, WS substrate profile (TLC)
# Type: biochemical, Marinobacter hydrocarbonoclasticus DSM 8798
# Set-up: key: no activity (−); ranging from no activity (−) to most active (+++); ranging from no activity (−) to most active (+++); most active (+++)
# test conditions: fatty alcohol C10; 12 h at 37° C.; each substrate 250 μM
observed property: WE formation (spot intensity of wax ester products on TLC), WS2, C10

Below, 5 compounds whose answers are already recorded.
**Query** Send back WS2 (Marinobacter nauticus) WE formation (spot intensity of wax ester products on TLC), WS2, C10 of CC(C)CCCC(C)CCCC(C)CCCC(C)CC(=O)O (stereo not drawn) only.
**Result** −

**Query** Please report WE formation (spot intensity of wax ester products on TLC), WS2, C10 with WS2 (Marinobacter nauticus) for item "CCCCCCCCCCCCCCCCCCCC(=O)O" .
**Result** −

**Query** State WE formation (spot intensity of wax ester products on TLC), WS2, C10 (WS2 (Marinobacter nauticus)) of CCCCCC/C=C\CCCCCCCC(=O)O [C16Δcis9] .
**Result** ++

**Query** Look up WS2 (Marinobacter nauticus) data: WE formation (spot intensity of wax ester products on TLC), WS2, C10 of "CCCCCCCCCCCCCCCC(=O)O" , then report it.
**Result** +

**Query** Look up WS2 (Marinobacter nauticus) data: WE formation (spot intensity of wax ester products on TLC), WS2, C10 of "CCCCCCCCCC(=O)O" , then report it.
**Result** +

Further cases:
**Query** State WE formation (spot intensity of wax ester products on TLC), WS2, C10 on WS2 (Marinobacter nauticus). Entry: "CCCCCCCCCCCCCCCCCC(=O)O"
**Result** +

---

# test system: WS2 (Marinobacter nauticus, UniProt A3RE51)
# Sequence (A3RE51 entry or part of it): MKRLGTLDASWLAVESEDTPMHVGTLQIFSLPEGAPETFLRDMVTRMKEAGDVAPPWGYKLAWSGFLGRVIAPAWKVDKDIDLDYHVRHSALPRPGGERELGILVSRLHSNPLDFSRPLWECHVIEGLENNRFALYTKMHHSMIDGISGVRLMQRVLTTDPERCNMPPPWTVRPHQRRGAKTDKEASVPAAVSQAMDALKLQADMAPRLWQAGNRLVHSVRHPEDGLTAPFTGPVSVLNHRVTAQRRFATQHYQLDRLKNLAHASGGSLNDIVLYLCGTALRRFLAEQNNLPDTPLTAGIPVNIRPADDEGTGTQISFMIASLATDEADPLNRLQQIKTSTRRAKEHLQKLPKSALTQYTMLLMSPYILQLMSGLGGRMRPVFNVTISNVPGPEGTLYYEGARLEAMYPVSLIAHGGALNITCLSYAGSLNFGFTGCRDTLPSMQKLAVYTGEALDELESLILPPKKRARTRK
# protocol summary: Coupled enzyme assay, WS substrate profile (TLC)
# Assay type: biochemical, Marinobacter hydrocarbonoclasticus DSM 8798
# Design: key: no activity (−); ranging from no activity (−) to most active (+++); ranging from no activity (−) to most active (+++); most active (+++)
# test conditions: fatty alcohol C12; 12 h at 37° C.; each substrate 250 μM
observed property: WE formation (spot intensity of wax ester products on TLC), WS2, C12

Consider the worked cases shown below.
**Query** Give the reported WE formation (spot intensity of wax ester products on TLC), WS2, C12 for this molecule. "CCCCCCCCCCCC(=O)O"
**Result** +

**Query** Return reported WE formation (spot intensity of wax ester products on TLC), WS2, C12. Input molecule: CCCCCC/C=C\CCCCCCCC(=O)O [C16Δcis9]
**Result** ++

**Query** Identify WE formation (spot intensity of wax ester products on TLC), WS2, C12 associated with the molecule "CCCCCCCCCCCCCC(=O)O"
**Result** +

**Query** Read off the recorded WE formation (spot intensity of wax ester products on TLC), WS2, C12 for CC/C=C\C/C=C\C/C=C\CCCCCCCC(=O)O [C18Δcis9, 12, 15]
**Result** +

**Query** Dear colleague, please send me the reported WE formation (spot intensity of wax ester products on TLC), WS2, C12 for "CCCCCCCCCCCCCCCCCC(=O)O" when you can.
**Result** +

More entries:
**Query** Read off the recorded WE formation (spot intensity of wax ester products on TLC), WS2, C12 for "CCCCCCCCCCCCCCCCCCCC(=O)O"
**Result** −

**Query** State its WE formation (spot intensity of wax ester products on TLC), WS2, C12: CC(C)CCCC(C)CCCC(C)CCCC(C)CC(=O)O (stereo not drawn)
**Result** −

**Query** Query WE formation (spot intensity of wax ester products on TLC), WS2, C12 for "CCCCCCCCCC(=O)O"
**Result** +

**Query** Recall and state the measured WE formation (spot intensity of wax ester products on TLC), WS2, C12 for "CCCCCCCCCCCCCCCC(=O)O" .
**Result** +

Source: patent US7897369B2
